Quick list: viability, T/C per entry.
Test system: 922993-354-T-J3-PDC complex spheroid viability;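 note: spheroids exposed to the agents for one week; 100% = DMSO vehicle control wells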
ASSAY_NAME: Anticancer human tumor 922993-354-T-J3-PDC patient-derived endometrial carcinoma cell line growth inhibition [POLQ]
CONDITIONS: second compound 10 µM; first compound 0.316 µM; active compounds read low
Entry rule: numbers only, all in %.

Recorded results for 9 compounds are shown here.
Item under review: CC1COCCN1c1cc(-c2ccnn2C)c2ccnc(-c3ccn[nH]3)c2n1 (stereo not given) + COC1C(OC(N)=O)C(O)C(Oc2ccc3c(O)c(NC(=O)c4ccc(O)c(CC=C(C)C)c4)c(=O)oc3c2C)OC1(C)C . Reported viability, T/C?
26.8

If you can, please state the reported viability, T/C value of COc1ccc([C@@H](O)c2cc(-c3ncnc4cc(N5CCOCC5)ccc34)c(F)cc2Cl)nn1 + Nc1ccc(C#CCN(C(=O)Cc2ncc(C(F)(F)F)cc2C(F)(F)F)c2ccc(F)cc2)nn1 .
91.4

What does the data say about its viability, T/C? Entry: CCc1cc2c(N3CCc4c(cc(Cn5ccnc5)cc4-c4cn(C)nc4C(F)(F)F)C3=O)cc(C)nc2c(OC)n1 + Cc1cccc(N(C)C(=O)C2C(O)CCN2c2nc(C)cc(C(F)(F)F)c2C#N)c1
105

Endpoint output: viability, T/C of COc1cccc2c1C(=O)c1c(O)c3c(c(O)c1C2=O)CC(O)(C(=O)CO)CC3OC1CC(N)C(O)C(C)O1 (stereo not given) + Nc1ccc(C#CCN(C(=O)Cc2ncc(C(F)(F)F)cc2C(F)(F)F)c2ccc(F)cc2)nn1 . Value?
41.5

So what's the measured viability, T/C for this one? C=CC(=O)N1CCN(c2nc(=O)n(-c3c(C)ccnc3C(C)C)c3nc(-c4c(O)cccc4F)c(F)cc23)C(C)C1 (stereo not given) + Nc1ccc(C#CCN(C(=O)Cc2ncc(C(F)(F)F)cc2C(F)(F)F)c2ccc(F)cc2)nn1
105

Value lookup for viability, T/C; key = O=C(c1cc(Cc2n[nH]c(=O)c3ccccc23)ccc1F)N1CCN(C(=O)C2CC2)CC1 + COC1C(OC(N)=O)C(O)C(Oc2ccc3c(O)c(NC(=O)c4ccc(O)c(CC=C(C)C)c4)c(=O)oc3c2C)OC1(C)C
87.8

I am curious: what viability, T/C value has been reported for O=c1[nH]cc(F)c(=O)[nH]1 + Nc1ccc(C#CCN(C(=O)Cc2ncc(C(F)(F)F)cc2C(F)(F)F)c2ccc(F)cc2)nn1 ?
100

May I ask what viability, T/C has been recorded for COc1cc2cc(C(=O)CCC(=O)O)sc2cc1OC + Nc1ccc(C#CCN(C(=O)Cc2ncc(C(F)(F)F)cc2C(F)(F)F)c2ccc(F)cc2)nn1 ?
97.7

May I ask what viability, T/C has been recorded for COc1cccc2c1C(=O)c1c(O)c3c(c(O)c1C2=O)CC(O)(C(=O)CO)CC3OC1CC(N)C(O)C(C)O1 (stereo not given) + COC1C(OC(N)=O)C(O)C(Oc2ccc3c(O)c(NC(=O)c4ccc(O)c(CC=C(C)C)c4)c(=O)oc3c2C)OC1(C)C ?
68.7

Now look at this one.
GET /values?readout=viability, T/C&item= CC1COCCN1c1cc(-c2ccnn2C)c2ccnc(-c3ccn[nH]3)c2n1 (stereo not given) + Nc1ccc(C#CCN(C(=O)Cc2ncc(C(F)(F)F)cc2C(F)(F)F)c2ccc(F)cc2)nn1
64.7
